Data origin: patent US20230088461A1

# Assayed Target: T1, recombinant human GPC3 (human, UniProt P51654 25-559, limits assumed)
# T1 construct: also called hGPC3
# Assay Name: SPR (Biacore), antibody as ligand, recombinant human GPC3 as analyte, 1:1 Langmuir model
Measured Parameter: kon (M⁻¹ s⁻¹)
Express it in M⁻¹ s⁻¹; write the number only.

Data request: Could you tell me which kon is on file for LAb19306 (antibody, V domains shown, Mouse monoclonal antibody purified from hybridoma supernatant) VH: EVQLVESGGGLVKPGGSLKLSCAASGFAFSTYDMSWVRQTPERRLEWVAYISSGGATTYYPDSVKGRFTISRDNAKNTLYLQMSSLKSEDTAMYYCARLSLMIRGWFAYWGQGTLVTVSA VL: DVVMTQTPLSLPVSLGDQASISCRSSQSLVHSNGNTYLHWYLQKPGQSPKLLIYKVSNRFSGVPDRFSGSGSGTDFTLKISRVEAEDLGVYFCSQSTHVPYTFGGGTKLEIK ?
Data returned: 27100

Data request: Could you tell me which kon is on file for LAb19309 (antibody, V domains shown, Mouse monoclonal antibody purified from hybridoma supernatant) VH: QVQLQQSGAELVRPGASVTLSCKASGYTFTDYEMHWVKQTPVHGLEWIGGIDPETGNTAYSQKFKGKATLTADKSSSTAYMEVRSLTSEDSAVYYCTRYYSFAYWGQGTLVTVSA VL: DVLMTQTPLSLPVNLGDQASISCRSSQTIVHSNGNTYLEWYLQKPGQSPKLLIYKVSNRFSGVPDRFSGSGSGTDFTLRISRVEAEDLGVYYCFQVSHVPYTFGGGTKLEIK ?
Data returned: 23300

Data request: Could you tell me which kon is on file for LAb19305 (antibody, V domains shown, Mouse monoclonal antibody purified from hybridoma supernatant) VH: QVQLQQSGAELVRPGASVTLSCKASGYTFTAYEMHWVKQTPVYGLEWIGGIDPETGNTAYSQNFKGKATLTADKSSSTAYMEVRSLTSEDSAVYYCSRYYSFAYWGQGTLVTVSA VL: DVLMTQTPLSLPVSLGDQASISCRSSQTIVHSNGNTYLEWYLQKPGQSPKLLIYKVSNRFSGVPDRFSGSGSGTDFTLKISRVEAEDLGVYYCFQVSHVPYTFGGGTKLEIK ?
Data returned: 31100

Data request: Could you tell me which kon is on file for LAb19308 (antibody, V domains shown, Mouse monoclonal antibody purified from hybridoma supernatant) VH: EVQLVESGGGLVKPGGSLKLSCAASGFAFITYGMSWVRQTPEKRLEWVAYISSGGANTYYPDSVKGRFTISRDNAKNTLYLQMSSLKSEDTAMYYCASLSTLVRGWFAYWGQGTLVTVSA VL: DVVMTQTPLSLPVSLGDQASISCRSSQSLVHSNGNTYLHWYLQKPGQSPKLLIYKVSNRFSGVPDRFSGSGSGTDFTLKISRVEAEDLGVYFCSQSTHVPYTFGGGTKLEIK ?
Data returned: 24700

Data request: Could you tell me which kon is on file for LAb19302 (antibody, V domains shown, Mouse monoclonal antibody purified from hybridoma supernatant) VH: AVQLVESGGGLVRPGGSLKLSCAASGFAFSTYGMSWVRQTPETRLEWVAYISSGGATTYYPDSVKGRFTISRDNAKNTLYLQMSSLKSEDTAMYYCASLSIMIRGWFAYWGQGTLVTVSA VL: DVVMTQTPLSLPVSLGDQASISCRSSQSLVHSNGNTYLHWYLQKPGQSPKVLIYKVSNRFSGVPDRFSGSGSGTDFTLKISRVEAEDLGVYFCSQSTHVPYTFGGGTKLEIK ?
Data returned: 25800

Data request: Could you tell me which kon is on file for LAb19310 (antibody, V domains shown, Mouse monoclonal antibody purified from hybridoma supernatant) VH: EVQLQQSGPELVKPGPSLKISCKASGYSFTVSPMTWVKQSHGKNLEWIGLIHPYNGDTTYNQKFKGKATLTVDKSSSTAYMELLSLTSEDSAVYYCARWGNYYPYAMDYWGQGTSVTVSS VL: DIVMTQSQKFMSTSVGDRVSITCKASQNVRSTVAWYQQKPGQSPKALIYLTSNRHTGVPDRFTGSGSGTDFTLTISNVQSEDLADYFCLQHWNYPYTFGGGTKLEIK ?
Data returned: 36900
